system: HOP-62 NSCLC; assay: NCI-60 one-dose screen, 48 h (100 = growth as untreated, 0 = no growth, -100 = all killed); details: 10 µM unless noted
This is part of a sample that, as a whole, favours compounds with a hit. Of some 83,000 tested, about 20% had one in any assay.
Give growth for every item shown.
Write the value in % as a bare number.

Query block: Quick one: growth for Clc1cccc(Cl)c1Cn1c(-c2cncs2)nc2ccccc21 ?
Result block: 97

Query block: Value lookup for growth; key = C#CCN1C(=O)/C(=c2\sc3n(c2=O)NC2C(N=3)N(CC)C(=O)N2CC)c2ccccc21 (stereo not given)
Result block: 80.9

Query block: What growth value was documented for this compound, CCC(=O)Nc1ccccc1C#C/C=C\C#Cc1ccccc1SC ?
Result block: 66.5

Query block: I would be grateful if you could share the reported growth for Cc1ccc2nc(-c3c(CCCO)noc3N)[nH]c(=O)c2c1 .
Result block: 103

Query block: What value of growth has been recorded for this entry: CSc1nc(-c2cc3ccccc3o2)cc(-c2ccc(Cl)cc2)c1C#N
Result block: 69.8

Query block: growth lookup needed for O=C(Nc1ccc(F)c(Cl)c1)c1n[nH]c(=O)c2ccccc12 , thanks.
Result block: 102

Query block: Please report the recorded growth for CC(=O)OCC1OC(OCC2OC(OC(C)=O)C(OC(C)=O)C(OC(C)=O)C2OC(C)=O)C(OC(C)=O)C(OC(C)=O)C1OC(C)=O (stereo not given) .
Result block: 97.5

Query block: // lookup growth for O=C1c2ccccc2C(=O)c2c(N=Nc3sc(=O)[nH]c3S)cccc21
Result block: 99.3

Query block: What does the record list as growth for Oc1ccc(N=Cc2ccccc2)cc1 ?
Result block: 115

Query block: Which growth is reported for this compound? COc1cc(CNC(=O)CSc2nc3ccccc3c(=O)n2Cc2cc(OC)c(OC)c(OC)c2)cc(OC)c1OC
Result block: 94
